Data provenance is ChEMBL document CHEMBL3507680.

Test: Human HepG2 cell viability assay in 384 well format
Type: toxicity, cell-based
Set-up: dose 125 nL, time 70.5 hour; concentration not given beside the values
Conditions: HepG2 cells, read-out: Inhibition
endpoint name: cytotoxicity at 70.5 h (%)
Only the number, expressed in %, is required.

Example cases with answers are listed next.
In [3]: df
Out[3]:
                                   compound  readout_value
0       Cc1noc(C)c1CN1CCn2cc(CN3CCCC3)nc2C1          -4.15
1  c1c[nH]c(CN2CCCC(Cc3ccc(NC4CCCC4)nn3)C2)n1 (configuration not stated)           7.73
2  CN1C[C@@H](n2cnc(-c3ccccc3)c2-c2c[nH]cn2)C[C@H]1C(=O)O          -7.26
3  Cc1cnn(CC2CCCCN2C(=O)c2ccc(NC3CC3)nc2)c1 (configuration not stated)          -4.98
4       O=C1COC2(CCN(Cc3nccs3)CC2)CN1CC1CC1           6.87

Ask: Given the compound `O=C(NCC1CCOCC1)[C@@H]1C[C@@H]2[C@@H](CCN2Cc2ccoc2)O1` , what is its reported cytotoxicity at 70.5 h?
Reply: 0.123

Ask: What cytotoxicity at 70.5 h value was documented for this compound, CSc1ccc(C(C(=O)O)N2CCCC2)cc1 (configuration not stated) ?
Reply: -7.97

Ask: // lookup cytotoxicity at 70.5 h for CN(Cc1ccco1)C(=O)CN1CCCC(Cn2cncn2)C1 (configuration not stated)
Reply: -8.21

Ask: What cytotoxicity at 70.5 h value was documented for this compound, `CNC(=O)CCc1cc(C)nc(C2CCN(CC(=O)N(C)C)CC2)c1` ?
Reply: -6.28

Ask: Return reported cytotoxicity at 70.5 h; argument: `Cn1c(CCNc2nccnc2C#N)nc2ccc(F)cc21`
Reply: 2.09

Ask: Requested field: cytotoxicity at 70.5 h. Item: Cc1ccc(C)c(OCc2nnc(SCC3CCCN(C)C3)o2)c1 (configuration not stated)
Reply: -5.12

Ask: Param item = `CN(CCc1nc(-c2cccc(Cl)c2)no1)CCn1cccn1` ; retrieve measured cytotoxicity at 70.5 h.
Reply: -5.46

----------
Assay: Human HepG2 cell viability assay in 384 well format
Format: toxicity, cell-based
Parameters: dose 125 nL, time 70.5 hour; concentration not given beside the values
Conditions: HepG2 cells, read-out: Inhibition
Here the recorded cytotoxicity at 70.5 h is given for each entry.
# output: bare number, implied unit %

These recorded examples may help you get a feel for the data.
In [3]: df
Out[3]:
                                   compound  readout_value
0  CN(C)C(C(=O)N1CCC(c2ncc[nH]2)CC1)c1ccc2c(c1)OCO2 (configuration not stated)           -5.4
1  Cc1cccc(C)c1NC(=O)c1cc(S(N)(=O)=O)c(C)o1           20.8
2  COCC(=O)N1CC2=CC(C)(C)COc3ccc(OC)c(c32)C1           21.5
3  Cc1cc(C(=O)NCc2ccc(N3CCCC(C(N)=O)C3)cc2)on1 (configuration not stated)          -3.31
4  Cc1cc(C)cc(NCCC(=O)NC2CCN(C(=O)C3CC3)CC2)c1          -2.45

Ask: Sample `O=C(Cn1cnnn1)Nc1ccc(F)cc1OCC1CC1` — what was its cytotoxicity at 70.5 h?
Reply: -13.9

Ask: State the recorded cytotoxicity at 70.5 h for this entry: O=C1CCC2(CCOC2)CN1Cc1ccc2nsnc2c1 (configuration not stated)
Reply: -3.21

Ask: cytotoxicity at 70.5 h for `O=C(CN1CCOC1=O)N1CCc2nnc(-c3ccccc3)n2CC1` ?
Reply: 11.7

----------
Experiment: Human HepG2 cell viability assay in 384 well format
Assay type: toxicity, cell-based
Design: dose 125 nL, time 70.5 hour; concentration not given beside the values
Conditions: HepG2 cells, read-out: Inhibition
Listed here are compounds together with their documented cytotoxicity at 70.5 h.
Provide only the numeric value, understood in %.

Reference set (5 entries):
>>> print(df.to_string())
                                   compound  readout_value
0           CN(Cc1ccsc1)Cc1nc(-c2cnccn2)no1          -6.12
1  O=C(c1ccoc1)N1CCCC2(CCC(=O)N2Cc2cccnc2)C1 (stereo unspecified)            2.4
2  CC(=O)N1CCc2ccccc2C1CC(=O)NCc1nnc(C)o1 (stereo unspecified)           27.7
3  COc1ccc(-c2cc(C3CCCCCN3S(C)(=O)=O)on2)cc1 (stereo unspecified)           -2.6
4  Cc1ccc(OCC(=O)N2CCN[C@H]3CS(=O)(=O)C[C@H]32)cn1          -16.7

Ask: cytotoxicity at 70.5 h for `CCC(=O)N1CCc2[nH]cnc2C12CCN(C1CCOCC1)CC2` ?
Reply: -4.44

----------
Experiment: Human HepG2 cell viability assay in 384 well format
Type: toxicity, cell-based
Set-up: dose 125 nL, time 70.5 hour; concentration not given beside the values
Conditions: HepG2 cells, read-out: Inhibition
Below, each entry is listed alongside its reported cytotoxicity at 70.5 h.
Write down the numeric answer in % and omit the unit.

// worked examples, cytotoxicity at 70.5 h included
In [3]: df
Out[3]:
                                   molecule           endpoint_name  readout_value
0   CCn1c(SCC(=O)N2CCCC2)nc2cc(C)[nH]c2c1=O  cytotoxicity at 70.5 h           36.5
1  CCCC(O)CN1CCC(=O)N(CC)Cc2cc3c(cc21)OCO3 (configuration not stated)  cytotoxicity at 70.5 h          -3.11
2  Cc1nnc2n1CCN(CC(=O)NC(C)c1cccc3ccccc13)C2 (configuration not stated)  cytotoxicity at 70.5 h           2.87
3  CN1CC(=O)N(c2cccc(F)c2)CC12CCN(CC1CC1)C2 (configuration not stated)  cytotoxicity at 70.5 h          -3.68
4  Cc1cc(C)cc(CN2CCN(C(=O)COCC3CCCO3)CC2=O)c1 (configuration not stated)  cytotoxicity at 70.5 h          -5.03

Turning now to a further molecule:
Ask: Tell me the measured cytotoxicity at 70.5 h of COc1ccccc1C(NC(=O)C1CCCC1)c1noc(C)n1 (configuration not stated) , please.
Reply: 1.95

----------
Each entry below carries its reported cytotoxicity at 70.5 h.
Test: Human HepG2 cell viability assay in 384 well format
Type: toxicity, cell-based
Design: dose 125 nL, time 70.5 hour; concentration not given beside the values
Details: HepG2 cells, read-out: Inhibition
Could you give me the number in %? Just the number is fine.

>>> df
                                   molecule  readout_unit  readout_value
0              CCN(Cc1nc(C(C)C)no1)Cc1cccs1             %          -10.8
1       CC(C)c1cc(NCC2(Cn3cccn3)CC2)nc(N)n1             %         -0.462
2  Cc1nn(C)c(N2CCCN(C)CC2)c1CNC(=O)CC1CCCC1             %          0.191

// next entry
Ask: For `Cn1cc(C(=O)NCc2cncc3c2CCNC3)cn1` , what is its reported cytotoxicity at 70.5 h?
Reply: 23.2

----------
Assay: Human HepG2 cell viability assay in 384 well format
Type: toxicity, cell-based
Set-up: dose 125 nL, time 70.5 hour; concentration not given beside the values
Conditions: HepG2 cells, read-out: Inhibition
endpoint name: cytotoxicity at 70.5 h (%)
// note: answer is a bare numeric in %

// below: answered compounds
                                   compound  readout_value
0  CCOc1ccc(Cl)c(C(=O)N2CCN(c3ncccn3)CC2)n1          -12.1
1  CN(C)C(=O)[C@H]1C[C@H]2OCC[C@H]2N(Cc2ccc(F)cc2)C1          -7.16
2  CCN1Cc2c(C(=O)NC(C)C(C)C)ncn2-c2ccccc2S1(=O)=O (centres undefined)           6.35
3     Fc1ccc(OCCNC2CCN(Cc3ccncc3)CC2)c(F)c1           12.1

Ask: # cytotoxicity at 70.5 h lookup, item `COc1nc(N2CCC(CC(N)=O)CC2)ncc1Br`
Reply: -8.58

Ask: What does the data say about its cytotoxicity at 70.5 h? Entry: Cc1ccc(C(=O)N2CCC3(CC(N(C)c4ccncn4)C3)C2)cn1 (centres undefined)
Reply: -2.36

Ask: State the recorded cytotoxicity at 70.5 h for this entry: `Cc1cc2c(N3CCC(N(C)Cc4nccs4)CC3)ncnc2s1`
Reply: 9.35

Ask: Entry Cc1ncc(CN(C)C)c(C2CCCN2c2ncccn2)n1 (centres undefined) : reported cytotoxicity at 70.5 h = ?
Reply: -7.95

Ask: Requested field: cytotoxicity at 70.5 h. Item: `Cn1cc(C(=O)NCc2cn3c(n2)CN(Cc2ccccn2)CC3)cn1`
Reply: -1.02

Ask: Look up cytotoxicity at 70.5 h: `CC(C)OCCC(=O)Nc1cc(C(=O)N(C)C(C)C)ccc1Cl`
Reply: 4.24

Ask: Consider the compound shown here: Cc1cc(CN2CCN(C(=O)NC(C)Cn3cccn3)CC2)no1 (centres undefined) What is its recorded cytotoxicity at 70.5 h?
Reply: -9.58
